Recorded measurements of koff, one per entry
Target: T1, DENV-2 nonstructural protein 1 (NS1), recombinant (dengue virus serotype 2 (DENV-2))
T1 chain: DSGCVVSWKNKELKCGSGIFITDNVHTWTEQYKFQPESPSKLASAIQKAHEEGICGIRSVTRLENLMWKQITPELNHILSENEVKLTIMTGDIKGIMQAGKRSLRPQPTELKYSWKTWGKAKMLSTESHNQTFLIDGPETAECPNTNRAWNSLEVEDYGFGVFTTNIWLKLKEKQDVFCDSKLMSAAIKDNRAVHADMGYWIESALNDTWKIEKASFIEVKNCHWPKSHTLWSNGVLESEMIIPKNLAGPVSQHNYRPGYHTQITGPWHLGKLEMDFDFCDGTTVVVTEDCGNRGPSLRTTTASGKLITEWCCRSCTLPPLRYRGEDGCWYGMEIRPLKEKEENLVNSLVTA
Test: SPR; NS1 immobilized

{"binder": "sdAb DC4 (VHH, source: E. coli Turner (DE3), pET22b, periplasmic, purified (Ni-Sepharose, SEC)) VHH: EVQLQASGGGLVQAGGSLRLSCAASERTFSHYFVGWFRQAPGKEREFVARITWSGSNVEYEDAVKDRFTLSSDNAKNTVYLHMNSLKPEDTAVYYCAAANTIWTPTIRDYNVWGQGTQVTVSS", "units": "s⁻¹", "koff": 0.00604}
{"binder": "sdAb DD5 (VHH, source: E. coli Turner (DE3), pET22b, periplasmic, purified (Ni-Sepharose, SEC)) VHH: EVQLQASGGGLVQAGGSLRLSCAASGRAFSSETMGWFRQAPGKEREFVAAIWRIGGSTYNTDYADSVKGRFAISADRAKNTVDLQMNTLKPEDTAVYYCAGKMRGRSVNLYDYDYWGQGTQVTVSS", "units": "s⁻¹", "koff": 0.000347}
{"binder": "sdAb DH12 (VHH, source: E. coli Turner (DE3), pET22b, periplasmic, purified (Ni-Sepharose, SEC)) VHH: EVQLVESGGGSVQAGGSLRLSCAASERTFSYYFMGWFRQAPGKEREWVARIRWNGDGADYTDAVKDRFTISSDHAKNTVYLQMNSLKPEDTAVYYCAAANSIWKPTTRDYNYWGQGTQVSVSS", "units": "s⁻¹", "koff": 0.00333}
{"binder": "sdAb DD9 (VHH, source: E. coli Turner (DE3), pET22b, periplasmic, purified (Ni-Sepharose, SEC)) VHH: EVQLQASGGGLVQAGGSLRVSCAASGIAFTNYALAWYRQPPGKQREWVATVGVLGGTKYADSVKGRFAISRDNAKNTVILQMNSLKPVDTAVYFCAAVEWSNGRYYWDSWGQGTQVTVSA", "units": "s⁻¹", "koff": 0.000545}

Reference for the values: paper PMC6308234
